- tested_on: T1, FZD6 CRD (Homo sapiens, UniProt O60353)
- T1 construct: S20-P146; GPI anchor signal (C); expressed in transfected cells; host or cells: CHO cells, lentiviral pLenti-puro
- T1 sequence (O60353 20-146): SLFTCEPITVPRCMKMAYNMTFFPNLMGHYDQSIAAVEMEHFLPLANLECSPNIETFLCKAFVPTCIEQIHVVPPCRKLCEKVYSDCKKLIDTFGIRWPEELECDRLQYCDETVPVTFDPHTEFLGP
- assay_protocol: Immunofluorescence of anti-FZD5 Fab binding to CHO cells overexpressing Frizzled CRD
- Parameters: key: −: no binding; +: very weak binder; ++: weak binder; +++: good binder; ++++: very good binder
assay_metric: Immunofluorescence binding, Frizzled CRD overexpressed on CHO cells: FZD6

[
  {
    "molecule": "Fab-2902: anti-FZD5 Fab with antibody variable region Fv-2902; CDR SEQ ID NOs: 35, 36, 41, 80, 117, 153 (antibody, V domains shown) VH: EVQLVESGGGLVQPGGSLRLSCAASGFNISYYYIHWVRQAPGKGLEWVASISSSSSSTSYADSVKGRFTISADTSKNTAYLQMNSLRAEDTAVYYCARGALDYWGQGTLVTVSS VL: DIQMTQSPSSLSASVGDRVTITCRASQSVSSAVAWYQQKPGKAPKLLIYSASSLYSGVPSRFSGSRSGTDFTLTISSLQPEDFATYYCQQWYAFGALITFGQGTKVEIK",
    "result": "−"
  },
  {
    "molecule": "Fab-2936: anti-FZD5 Fab with antibody variable region Fv-2936; CDR SEQ ID NOs: 35, 36, 75, 112, 151, 179 (antibody, V domains shown) VH: EVQLVESGGGLVQPGGSLRLSCAASGFNISYYYMHWVRQAPGKGLEWVASIYSSSGSTSYADSVKGRFTISADTSKNTAYLQMNSLRAEDTAVYYCARAAMDYWGQGTLVTVSS VL: DIQMTQSPSSLSASVGDRVTITCRASQSVSSAVAWYQQKPGKAPKLLIYSASSLYSGVPSRFSGSRSGTDFTLTISSLQPEDFATYYCQQWYAASLITFGQGTKVEIK",
    "result": "−"
  }
]
